All figures here come from the supplement of paper PMC10567573.

Reported protein stability index is given for each of the following variants.
B1: TRAF3IP2 (parent)
chain: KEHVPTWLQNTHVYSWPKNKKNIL

- Variants of: B1
- Assay remarks: protein stability index of a GFP-peptide fusion (GPS, HEK-293T) (PSI 1-6); higher = more stable;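 note: lentivirally expressed fusions sorted by FACS into six bins by GFP to DsRed ratio, PSI derived from sequencing read proportions per bin multiplied by bin number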
- Cond: c terminus: a fixed tail appended
Output spec: single numeric token, no unit.

T6K = 2.73
E2T = 2.33
W7I = 2.61

Ask: Give the measured protein stability index of Q9H .
Reply: 2.54

Ask: What about E2P ?
Reply: 2.25

Ask: What about K21M ?
Reply: 1.95
